system: Neuregulin-1 EGF-like domain; test: binders of neuregulin-1 EGF-like domain, primary screen, biochemical, small-molecule microarray, 635 nm fluorescence (AID 1081); conditions: small-molecule microarray binding, higher = more signal;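 also: binding of the protein to compounds printed on small-molecule microarray slides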
Assay Endpoint: composite z-score

# count of solved cases: 5
CO[C@H]1COC(=O)[C@@H](OCc2ccccc2)C=C[C@H](C)[C@@H](OC)COC(=O)[C@H](OCc2ccccc2)C=C[C@@H]1C
-0.669
NC(=O)NCC#Cc1ccc2c(c1)[C@]1(C(=O)N2)[C@H](C(N)=O)[C@H]2C(=O)O[C@H](c3ccccc3)[C@H](c3ccccc3)N2[C@@H]1c1ccccc1OCCO
-0.0706
C=C(C)[C@@H]1CC=C(C(O)C2C=CC3C(=O)NC(=O)C3N2Nc2ccccn2)CC1 (some centres not stated)
1.35
CO[C@]12C=C(Br)[C@@H](C[C@@H]1c1ccccc1)[C@@]1(CO1)C2=O
-0.356
COCCOC(=O)N1C(=O)[C@@]2(c3cc(C#CCC(C(=O)OC)C(=O)OC)ccc31)[C@H](c1ccccc1OCCO)N1[C@H](c3ccccc3)[C@H](c3ccccc3)OC(=O)[C@H]1[C@@H]2C(=O)N1CCCCCCC1
1.33

Please report composite z-score for every entry that follows.
1. C[C@]1(C(=O)NCc2ccccc2)c2ccccc2C(=O)N(Cc2cc(C(F)(F)F)cc(C(F)(F)F)c2)[C@H]1c1ccc(CO)cc1
2. Cc1cc(C)c(C(O)C2C=CC3C(=O)N(C)C(=O)C3N2N2CCCCC2)c(C)c1 (configuration not stated)

Result string:
1.23
1.3

###

experiment: basal MM1S mitochondrial membrane potential changes, profiling panel, cell-based, JC-1 fluorescence, 24 h, 100 nL compound (AID 1170); conditions: higher = more signal; also: test concentration not given here
Decide using z-score: a value greater than or equal to -0.4 is label 1, a smaller one is label 0.

C[C@]1(C(=O)NCCN2CCOCC2)c2ccccc2C(=O)N(Cc2ccccc2)[C@H]1c1ccc(CO)cc1
label 1
COCCOC(=O)N1C(=O)[C@@]2(c3cc(C#CCCO)ccc31)[C@H](c1ccc(OCCO)cc1)N1[C@H](c3ccccc3)[C@H](c3ccccc3)OC(=O)[C@H]1[C@@H]2C(=O)NC[C@H](O)c1ccccc1
label 0
CC(C)C[C@@H]1NC(=O)[C@H]2C[C@@H](C(=O)NCCCCCC[N+](C)(C)C)[C@@H](c3ccc(O)cc3)N2C1=O
label 0
CCOC(=O)C[C@H]1[C@H](OC(=O)c2cc3ccccc3oc2=O)[C@@H](NC(=O)C2CCCCC2)c2cc(OCCCO)ccc2N1C(=O)c1ccc2ccccc2n1
label 1
CN1CCC(CCCO)=CC1C1CC1 (stereo not given)
label 1
CCC1=C2CN(Cc3ccccc3Br)[C@@H]([C@@H](O)Cc3ccccc3)C2C=CCC1 (stereo not given in full)
label 0
CCOC(=O)C[C@H]1[C@H](OC(=O)c2cc3ccccc3oc2=O)[C@@H](NC(=O)c2ccc3ccccc3c2)c2cc(OCCCO)ccc2N1C(=O)c1ccc2ccccc2n1
label 1
C=C(COC)/C(=C/C[C@@H](OC(C)=O)c1cccc(OCCO)c1)c1cc(C(=O)OC)ccc1OC
label 0
COC(=O)C[C@H]1O[C@]2(C(=O)N(Cc3ccccc3)c3ccc(I)cc32)[C@@H](C)[C@@H]1[Si](C)(C)c1ccc(OC)cc1
label 1
C=C(/C(=C/C[C@@H](OC(=O)c1ccncc1)c1ccc(CO)o1)c1cnc2ccccc2c1)C(C)C
label 1

Query string: Is reported z-score greater than or equal to -0.4 here: CSCC[C@@H]1NC(=O)CC=C[C@@H](C)COC(=O)[C@H](CCSC)NC(=O)CC=C[C@@H](C)COC1=O
Result string: label 1

Query string: Entry CC(=O)NCCCC[C@@H]1NC(=O)[C@@H]2C[C@H](C(=O)NCc3ccc(F)cc3)[C@H](c3cccc(OCCO)c3)N2C1=O : is its z-score no less than -0.4?
Result string: label 0

Query string: Could you verify whether the entry O=C(NCc1ccccc1)[C@@]1(Cc2ccccc2)COC(c2ccc(OCCCO)cc2)=N1 shows z-score of no less than -0.4?
Result string: label 0
